Source listed as patent US20150064204A1.

List of IFNg Secretion EC50 values.
Biological target: T1, human GITR (Glucocorticoid-induced TNFR-related gene, TNFRSF18) (human, UniProt Q9Y5U5 26-241)
T1 sequence: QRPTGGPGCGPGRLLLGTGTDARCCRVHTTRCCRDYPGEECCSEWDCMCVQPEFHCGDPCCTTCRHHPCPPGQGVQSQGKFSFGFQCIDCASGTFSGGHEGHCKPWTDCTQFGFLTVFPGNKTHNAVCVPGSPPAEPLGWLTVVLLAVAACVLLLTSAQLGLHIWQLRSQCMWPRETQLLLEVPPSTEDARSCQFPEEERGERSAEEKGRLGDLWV
Assay: cell-based or functional assay

# binder, unitText, IFNg Secretion EC50
records = [
    ("44C1v1 (antibody, human IgG1, lambda, V domains shown, tied to 44C1v1 by Ab20 / SS-12514; also called Ab20; SS-12514) VH: QVQLVESGGGVVQPGRSLRLSCAASGFTLSSYGMHWVRQAPGKGLEWVAVIWYDGSNKYYADSVKGRFTISRDNSKNTLYLQMNSLRAEDTAVYYCARRGTVTTPDFDYWGQGTLVTVSS VL: QSALTQPASVSGSPGQSITISCTGTSSDVGTYNLVSWYQQHPGKAPKLMIYEVSKRPSGVSNRFSGSKSGNTASLTISGLQAEDEADYYCASYAGFSTWVFGGGTKLTVLG", "ng/mL", 11.4),
    ("9H6 (antibody, human IgG1, kappa, V domains shown, Fully human parental antibody; also called Ab19; SS-10945) VH: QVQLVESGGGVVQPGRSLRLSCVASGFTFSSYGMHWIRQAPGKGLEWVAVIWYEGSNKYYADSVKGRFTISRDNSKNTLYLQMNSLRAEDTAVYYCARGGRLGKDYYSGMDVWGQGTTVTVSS VL: DIQMTQSPSSLSASVGDRVTITCRASQGIRNDLGWYQQKPGKAPNRLIYATSSLQSGVPSRFSGSGSGTEFTLTISSLQPEDFATYYCLQHNTYPWTFGQGTKVEIKR", "ng/mL", 0.5),
    ("5H7 (antibody, human IgG1, kappa, V domains shown, Fully human parental antibody; also called Ab17; SS-10943) VH: QVQLQESGPGLVKPSQTLSLTCTVSGGSISSGGYFWSWIRQHPGKGLEWIGYIYYSGTTYYNPSLKSRVTISIDTSKNHFSLKLSSVTAADTAVYYCARDLFYYDSSGPRGFDPWGQGTLVTVSS VL: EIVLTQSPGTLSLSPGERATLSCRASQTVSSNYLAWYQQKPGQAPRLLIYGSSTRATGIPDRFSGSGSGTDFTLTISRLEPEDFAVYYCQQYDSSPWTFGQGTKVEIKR", "ng/mL", 11.3),
    ("48H7 (antibody, human IgG1, kappa, V domains shown, Fully human parental antibody; also called Ab13; SS-12423) VH: QVQLVESGGGVVQPGRSLRLSCAASGFTFSSYGMYWVRQAPGKGLEWVAVIWYEGSNKYYADSVKGRFTISRDNSKNTLYLQMNSLRAEDTAVYFCARGGELGRDYYSGMDVWGQGTTVTVSS VL: DIQMTQSPSSLSASVGDRVTITCRASQVIRNDLGWYQQKPGKAPKRLIYAASSLQSGVPSRFSGSGSGTEFTLTISSLQPEDFATYYCLQHNSYPITFGGGTKVEIKR", "ng/mL", 0.6),
    ("42A11 (antibody, human IgG1, kappa, V domains shown, Fully human parental antibody; also called Ab8; SS-12418) VH: QVQLVESGGGVVQPGRSLRLSCAASGFTFSSYGMHWVRQAPGKGLEWVAVIWYEGSNKYYADSVKGRFTISRDNSKNTLYLQMNSLRAEDTAVYYCARGGQLGYYYYSGMDVWGQGTTVTVSS VL: DIQMTQSPSSLSASVGDRVTITCRASQGIRNDLGWYQQKPGKAPKRLIYDASSLQSGVPSRFSGSGSGTDFTLTISSLQPEEFATYYCLQHNNYPWTFGQGTKVEIKR", "ng/mL", 1.2),
]
